Hello, the source for this data is paper PMC12881670, in case you need it.

System name: Hs_FPR2 (Homo sapiens)
Construct: expressed in transfected cells
Sequence (P25090 whole entry): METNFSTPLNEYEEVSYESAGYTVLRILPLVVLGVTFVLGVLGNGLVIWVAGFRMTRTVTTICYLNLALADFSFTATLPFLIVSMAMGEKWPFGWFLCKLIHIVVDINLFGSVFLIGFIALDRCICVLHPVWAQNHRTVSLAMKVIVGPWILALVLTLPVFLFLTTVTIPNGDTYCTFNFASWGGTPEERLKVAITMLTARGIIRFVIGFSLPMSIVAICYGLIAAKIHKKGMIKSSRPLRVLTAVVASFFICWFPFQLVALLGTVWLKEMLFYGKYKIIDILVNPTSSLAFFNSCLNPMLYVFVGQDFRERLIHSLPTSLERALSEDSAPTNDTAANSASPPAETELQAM
Assay summary: Internalization of FLAG-tagged receptors by flow cytometry
Format: cell-based
Where a SMILES comes first, the peptide text is derived from it. The star is where a group is joined. For = O=C*

{"Compound": "CSCC[C@H](NC=O)C(=O)N[C@@H](CC(C)C)C(=O)N[C@@H](Cc1ccccc1)C(=O)N[C@@H](CCCCN)C(=O)O [fMLFK, fMet-Leu-Phe-Lys] (For-MLFK-OH)", "EC50, µM": 33.4}

---

System name: Hs_FPR1 (Homo sapiens, UniProt P21462)
Construct: expressed in transfected cells
Sequence (P21462 1-350): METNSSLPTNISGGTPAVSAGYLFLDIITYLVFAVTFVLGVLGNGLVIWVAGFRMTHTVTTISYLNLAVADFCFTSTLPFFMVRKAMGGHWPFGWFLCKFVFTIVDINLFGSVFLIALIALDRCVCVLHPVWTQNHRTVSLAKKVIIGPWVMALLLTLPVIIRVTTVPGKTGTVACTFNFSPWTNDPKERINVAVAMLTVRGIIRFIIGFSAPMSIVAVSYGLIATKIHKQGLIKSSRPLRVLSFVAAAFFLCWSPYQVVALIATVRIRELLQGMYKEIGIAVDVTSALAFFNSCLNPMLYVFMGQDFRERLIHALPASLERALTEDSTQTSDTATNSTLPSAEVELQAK
Assay summary: BRET receptor-RLuc8 interaction with Venus-mGsi
Assay type: cell-based
Where a SMILES comes first, the peptide text is derived from it. The star is where a group is joined. For = O=C*

{"Molecule": "COc1cc(F)c([C@@H]2CNC(=O)[C@H]2NC(=O)Nc2ccccc2)c(F)c1", "System name": "Hs_FPR1 (Homo sapiens, UniProt P21462)", "EC50": "2240 nM"}
{"Molecule": "CSCC[C@H](NC=O)C(=O)N[C@@H](CC(C)C)C(=O)N[C@@H](Cc1ccccc1)C(=O)N[C@@H](CCCCN)C(=O)O [fMLFK, fMet-Leu-Phe-Lys] (For-MLFK-OH)", "System name": "Hs_FPR1 (Homo sapiens, UniProt P21462)", "EC50": "85.1 nM"}
